- Assay Name: AP1 Signaling Pathway (AID 357);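 further: ME-180 reporter cells stimulated with EGF at its EC50 level; on the % scale 0 is the no-effect control and ±100 the full control effect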
- Assay Context: ME-180 (cervical carcinoma) AP-1-bla reporter, EGF-induced, beta-lactamase ratio, 5 h; at 7.69 µM (top of the series) unless noted
Records with an inconclusive call do not appear. Activity calls are given as the source filed them. The call rests on the fitted dose curve; in most records, active means well fitted curve in either direction with a large enough effect (not every such curve was filed as active); inconclusive means small, poorly fitted or top-dose-only effect, or another doubt; inactive means flat fitted curve, though single readings scatter.
Parameter: activity change, negative = inhibition

# example entries with known answers
>>> measured_result("CC(C)[C@H]1C(=O)C(C(N)=O)=C(O)[C@]2(O)C(=O)C3=C(O)c4c(O)ccc(N(C)C)c4C[C@H]3C[C@@H]12")
"0.478% [at 38 µM] (inactive)"
>>> measured_result("[N-]=[N+]=N[C@@H]1[C@H](O)[C@H](CO)O[C@@H]1n1cnc2c(N)ncnc21")
"-7.07% (inactive)"
>>> measured_result("O=C(O)c1ccc(/C=N\\N=C2c3ccccc3-c3ccccc32)cc1")
"-12.4% (inactive)"
>>> measured_result("COc1cccc2c1C(=N)c1c(O)c3c(c(O)c1C2=O)C[C@](O)(C(C)=O)C[C@@H]3O[C@H]1C[C@H](N)[C@@H](O)[C@H](C)O1")
"-2.66% (inactive)"
>>> measured_result("NC(=S)SCCC(=O)O")
"11.1% (inactive)"
>>> measured_result("N[C@@H](CSc1nc2ccccn2c1[N+](=O)[O-])C(=O)O")
"-2.33% (inactive)"
>>> measured_result("NC(CSS(=O)(=O)O)=N[C@@H]1C[C@H]2CC[C@@H]1C2")
"16.8% (inactive)"
>>> measured_result("Cc1ccc(N=Nc2c(O)ccc3cc(S(=O)(=O)O)ccc23)cc1")
"-18.1% (inactive)"
>>> measured_result("C=C(NC(=O)C(=C)NC(=O)c1csc(C2=N[C@@H]3c4csc(n4)[C@@H]4NC(=O)c5csc(n5)[C@@H]([C@](C)(O)[C@H](C)O)NC(=O)[C@@H]5CSC(=N5)/C(=C/C)NC(=O)[C@@H]([C@H](C)O)NC(=O)c5csc(n5)[C@]3(CC2)NC(=O)[C@@H](C)NC(=O)C(=C)NC(=O)[C@@H](C)NC(=O)[C@@H]([C@@H](C)CC)N[C@H]2C=Cc3c([C@H](C)O)cc(nc3[C@@H]2O)C(=O)O[C@H]4C)n1)C(N)=O")
"-15.7% [at 17.2 µM] (inactive)"

Consider the record given below.
IN: Give its activity change, negative = inhibition value. Item: O=C(O)CCN1C(=S)CSC1=S
OUT: -2.79% (inactive)

----------
- Assay Name: Cell Viability - N2a (AID 540);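 further: cells exposed to compound for 40 h at 37 °C; plate controls were DMSO alone for no effect and tamoxifen control for full effect; nearly all actives have a fitted effect of over 45% in size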
- Assay Context: N2a mouse neuroblastoma cell viability; at 92.2 µM (top of the series)
Records with an inconclusive call do not appear.
Consider the following compounds and their measured activity change, negative = cytotoxicity readings.
Your answer should be a plain number; it is taken to be in %.

# example entries with known answers
>>> measured_result("CC(CCC(=O)O)(c1ccc(O)cc1)c1ccc(O)cc1")
8.91
>>> measured_result("Cc1ccc(C(=O)O)cc1[N+](=O)[O-]")
4.91
>>> measured_result("CCCCCCCCC1CO1 (stereo not given)")
-1.38
>>> measured_result("COc1ccc(C(=O)Nc2ccccc2)cc1[N+](=O)[O-]")
-4

IN: Give its activity change, negative = cytotoxicity value. Item: C[Si](C)(C)Cl
OUT: -6.55

IN: Give its activity change, negative = cytotoxicity value. Item: CN(C)c1ccc(Cc2ccc(N(C)C)cc2)cc1
OUT: -41

IN: Give its activity change, negative = cytotoxicity value. Item: CCCCCCCCOc1ccc(C(=O)O)cc1
OUT: -7.43

IN: Give its activity change, negative = cytotoxicity value. Item: NC(=O)Nc1nc2ccccc2[nH]1
OUT: -4.08

IN: Give its activity change, negative = cytotoxicity value. Item: CCCCCCCC/C=C\CCCCCCCC(=O)N(CCO)CCO
OUT: -111

IN: Give its activity change, negative = cytotoxicity value. Item: Cc1ccccc1OCC1CO1 (stereo not given)
OUT: -6.29
